- protocol summary: Ratio of test compound IC50 to melphalan IC50 for human MDA-MB-468 cells incubated for 4 hrs under aerobic condition followed by compound washout and measured after 5 days by SRB assay
- Type: ADME, cell-based
- condition label: read-out: Ratio IC50
reported metric: selectivity ratio at 4 h
Lab note: record the figure alone, no unit after it.

Need selectivity ratio at 4 h, item Cc1cc(C)c(/C=C(\C(=O)Nc2ccc(N(CCCl)CCCl)cc2)c2ccccc2[N+](=O)[O-])[nH]1
8.3
